# tested.system: human ether-à-go-go-related gene (hERG) potassium channel (human);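 further: peak tail current of the secondary pulse compared with the same well before compound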
# assay.details: primary screen, population patch clamp on CHO cells stably expressing hERG; higher = less effect of the substance
Hit rate of the full screen: of about 310,000 compounds, about 14,000 (4.5%) showed an effect of 50% or more. Effects have a minus sign here. Many of the other results were omitted from the sample, so strong results are more common in it than they were.
Grouping by measured hERG current change (%, negative = inhibition) at 10uM is done with the following cut points: LOW: < -60%; MEDIUM: ≥ -60% and < -20%; HIGH: ≥ -20%

compound=Cc1cc(N2CCN(c3ccc([N+](=O)[O-])c4cccnc34)CC2)c2ccccc2n1 cat=LOW
compound="CC(COc1ccccc1Cc1ccccc1)N1CCCCC1.O=P(O)(O)O (stereo not drawn)" cat=LOW
compound=O=[N+]([O-])c1cc(C(F)(F)F)ccc1N1CCN(S(=O)(=O)c2ccc3ccccc3c2)CC1 cat=HIGH
compound=Cl.O=[N+]([O-])c1ccc(N2CCCNCC2)c2ncccc12 cat=LOW
compound=O=[N+]([O-])c1ccc(N2CCCCC2)c2ncccc12 cat=MEDIUM
compound=Cc1ccc(S(=O)(=O)N2CCN(c3ccc(C(F)(F)F)cc3[N+](=O)[O-])CC2)cc1 cat=MEDIUM
compound=O=[N+]([O-])c1ccc(N2CCCC2)c2ncccc12 cat=HIGH
compound="CC(C(=O)Nc1ccc(OCc2ccccc2)cc1)N1CCCC1 (stereo not drawn)" cat=MEDIUM
compound=Cc1cc(N2CCN(c3ccc(C(F)(F)F)cc3[N+](=O)[O-])CC2)c2ccccc2n1 cat=LOW

----------
# tested.system: human ether-à-go-go-related gene (hERG) potassium channel (human, UniProt Q12809);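 further: peak tail current of the secondary pulse compared with the same well before compound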
# Sequence (Q12809 whole entry, looked up): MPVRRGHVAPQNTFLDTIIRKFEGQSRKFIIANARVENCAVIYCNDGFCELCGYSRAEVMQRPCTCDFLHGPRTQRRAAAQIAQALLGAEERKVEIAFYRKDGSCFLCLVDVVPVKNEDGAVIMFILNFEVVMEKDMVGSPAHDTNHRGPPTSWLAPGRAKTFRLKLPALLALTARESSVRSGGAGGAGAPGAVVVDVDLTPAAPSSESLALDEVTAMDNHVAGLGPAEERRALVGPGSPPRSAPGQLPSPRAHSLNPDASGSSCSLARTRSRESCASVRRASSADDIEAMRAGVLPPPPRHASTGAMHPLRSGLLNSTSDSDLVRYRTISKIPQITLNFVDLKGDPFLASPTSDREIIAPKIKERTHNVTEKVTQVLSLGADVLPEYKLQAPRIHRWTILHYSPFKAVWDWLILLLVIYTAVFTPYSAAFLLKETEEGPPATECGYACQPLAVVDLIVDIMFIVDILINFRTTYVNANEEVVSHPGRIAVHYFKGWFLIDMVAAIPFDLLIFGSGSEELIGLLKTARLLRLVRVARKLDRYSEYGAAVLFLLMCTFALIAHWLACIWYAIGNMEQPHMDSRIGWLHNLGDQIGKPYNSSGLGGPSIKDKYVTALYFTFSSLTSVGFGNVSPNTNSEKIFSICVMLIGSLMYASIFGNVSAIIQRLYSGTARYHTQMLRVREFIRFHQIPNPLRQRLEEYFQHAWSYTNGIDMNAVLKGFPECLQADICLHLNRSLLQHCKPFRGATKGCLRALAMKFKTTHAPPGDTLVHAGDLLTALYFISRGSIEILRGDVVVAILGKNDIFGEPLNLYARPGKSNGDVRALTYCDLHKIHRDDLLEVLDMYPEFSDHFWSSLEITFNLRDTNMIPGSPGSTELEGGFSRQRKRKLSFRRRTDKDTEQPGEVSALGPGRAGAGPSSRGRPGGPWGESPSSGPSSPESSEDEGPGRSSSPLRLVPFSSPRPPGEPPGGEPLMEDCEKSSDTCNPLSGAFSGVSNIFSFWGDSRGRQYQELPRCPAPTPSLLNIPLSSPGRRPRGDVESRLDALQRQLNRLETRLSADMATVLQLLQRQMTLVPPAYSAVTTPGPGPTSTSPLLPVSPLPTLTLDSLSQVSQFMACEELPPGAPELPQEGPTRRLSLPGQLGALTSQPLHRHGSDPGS
# assay.details: primary screen, population patch clamp on CHO cells stably expressing hERG; higher = less effect of the substance
In all, about 310,000 compounds went through this assay and about 14,000 (4.5%) showed an effect of 50% or more. Effects have a minus sign here. Only a selection was taken, and strong results are over-represented in it overall.
quantity.kind: hERG current change (%, negative = inhibition) at 10uM (%)

compound=Cc1ccc(NC(=O)c2ccccc2NS(=O)(=O)c2ccc(Cl)s2)cc1S(=O)(=O)N1CCOCC1 endpoint_unit=% value_reported=0.321
compound="CCCCC(=O)N1C/C=C\\C(c2ccc(OC)cc2)N(Cc2ccc(F)cc2)C(=O)[C@H]1Cc1ccccc1 (some centres unmarked)" endpoint_unit=% value_reported=7.51
compound=COc1cccc(/C=C2\SC(=O)NC2=O)c1OCc1ccc(C(=O)O)cc1 endpoint_unit=% value_reported=9.69
compound="COc1cccc(CNS(=O)(=O)c2ccc3c(c2)CC(C)N3C(=O)C2CC2)c1 (centres unmarked)" endpoint_unit=% value_reported=18.5
compound="Cn1c2c(c(=O)n(C)c1=O)C(c1cc3c(cc1Br)OCO3)CC(=O)N2 (centres unmarked)" endpoint_unit=% value_reported=3.46
compound="O=C(NC1CCCCC1)C(c1ccc(F)cc1)N(C(=O)c1csnn1)C1CCCC1 (centres unmarked)" endpoint_unit=% value_reported=-7.88
compound=COc1ccc([C@H]2/C=C\CN(C(=O)CC(C)(C)C)[C@@H](C)C(=O)N2Cc2ccc(F)cc2)cc1 endpoint_unit=% value_reported=-17.4
compound=CCCCC(=O)N1C/C=C\[C@H](c2ccc(OC)cc2)N(Cc2ccc(F)cc2)C(=O)[C@@H]1C endpoint_unit=% value_reported=-68.6

----------
Overview of recorded hERG current change (%, negative = inhibition) at 10uM for various compounds
# tested.system: human ether-à-go-go-related gene (hERG) potassium channel (human, UniProt Q12809);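 further: peak tail current of the secondary pulse compared with the same well before compound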
# assay.details: primary screen, population patch clamp on CHO cells stably expressing hERG; higher = less effect of the substance
Out of some 310,000 compounds screened, about 14,000 (4.5%) showed an effect of 50% or more. Effects have a minus sign here. This excerpt belongs to a sample that is enriched for strong results.
quantity.kind: hERG current change (%, negative = inhibition) at 10uM (%)

smiles_repr=COc1ccc(N2C(=O)/C(=C\c3ccco3)N=C2SCC(=O)NC(C)C)cc1Cl endpoint_unit=% value_reported=4.42
smiles_repr=COCCNc1ccc(S(=O)(=O)N2CCCC2)cn1 endpoint_unit=% value_reported=13.2
smiles_repr=CSc1cccc(NC(=O)COC(=O)C2CCN(S(=O)(=O)c3ccccc3)CC2)c1 endpoint_unit=% value_reported=4.09
smiles_repr=CCOc1ccc(CNC(=O)C(=O)c2cn(CC(=O)N3CCOCC3)c3ccccc23)cc1OC endpoint_unit=% value_reported=17.1
smiles_repr=CSc1cccc(NC(=O)C2CCN(S(=O)(=O)c3ccc4c(c3)NC(=O)CO4)CC2)c1 endpoint_unit=% value_reported=12.3

----------
Overview of recorded hERG current change (%, negative = inhibition) at 10uM for various molecules
# tested.system: human ether-à-go-go-related gene (hERG) potassium channel (human, UniProt Q12809);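 further: peak tail current of the secondary pulse compared with the same well before compound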
# assay.details: primary screen, population patch clamp on CHO cells stably expressing hERG; higher = less effect of the substance
About 14,000 (4.5%) of roughly 310,000 compounds showed an effect of 50% or more. The effect is printed as a negative number. This is one part of a sample in which strong results are shown more often than they occur.
quantity.kind: hERG current change (%, negative = inhibition) at 10uM (%)

molecule=CCOC(=O)N1CCN(c2nc(-c3cccc(OC)c3)cc(C(F)(F)F)n2)CC1 value_reported=6.67
molecule=CN(Cc1cn[nH]c1-c1cc2ccccc2o1)CC1CCOCC1 value_reported=-66.4
molecule="COc1ccc(NC(=O)CN(C)CC(=O)NC2CCC(C)CC2)cc1 (stereo not shown)" value_reported=0.408
molecule=CCCCn1c(=O)[nH]c(=O)c2c1nc(-c1ccc(OC(F)F)c(OC)c1)n2C value_reported=17.1
molecule=CCN(CCn1cccn1)Cc1cn[nH]c1-c1ccc(-c2ccccc2)cc1 value_reported=9.21
molecule=COCCn1c(-c2ccc(C#N)cc2)nc2c1c(=O)[nH]c(=O)n2Cc1ccccc1 value_reported=-33.9
molecule=Cc1ccc(CC(=O)NCc2ccc3c(c2)OCO3)cc1 value_reported=2.24
molecule=CN(Cc1cccnc1)Cc1cn[nH]c1-c1ccc(-c2ccccc2)cc1 value_reported=-56.7
molecule=Cc1ccc(C2=NN(CCC(=O)NCc3ccc4c(c3)OCO4)C(=O)CC2)cc1 value_reported=-69.7
molecule=CCCn1c(-c2cccc([N+](=O)[O-])c2)nc2c1c(=O)[nH]c(=O)n2Cc1ccccc1 value_reported=-66.4
molecule=O=C(CSc1nc2c(c(C(F)(F)F)n1)CCc1ccccc1-2)NCc1ccco1 value_reported=2.99
molecule=COCCn1c(-c2cccc([N+](=O)[O-])c2)nc2c1c(=O)[nH]c(=O)n2Cc1ccccc1 value_reported=-84.2
molecule=COC(=O)c1ccc(-c2noc(CN(Cc3nccn3C)C(C)C)n2)cc1 value_reported=-37
molecule=O=C(CO/N=C/c1ccc(OC(F)F)cc1)NCc1ccco1 value_reported=-51.8
molecule="COc1ccc(CN(C)CC(O)COC(c2ccccc2)c2ccccc2)c(OC)c1OC (stereo not shown)" value_reported=-76.7
molecule=CCCn1c(=O)[nH]c(=O)c2c1nc(-c1ccc(OC)c(Br)c1)n2CCOC value_reported=-20.1
molecule="COc1ccc(CN(C)CC(O)COc2ccc(C(=O)c3ccccc3)cc2)c(OC)c1OC (stereo not shown)" value_reported=-63.7
molecule=COc1ccc(CN(C)CCc2ccccn2)c(OC)c1OC.O=C(O)C(=O)O value_reported=-38.9
molecule=COCC(=O)Nc1ccc(C)c(Cl)c1 value_reported=14.4
molecule="COCCn1c(C)cc2c(c1=O)C(c1ccco1)C(C#N)=C(N)O2 (stereo not shown)" value_reported=12.7
molecule=Cc1ccc(C2=NN(CCC(=O)NCCCN3CCOCC3)C(=O)CC2)cc1 value_reported=-52.3
molecule=CCOC(=O)[C@@H]1[C@H]2COc3cc(OC)ccc3[C@@H]2N2C(=O)N(c3ccc(C(F)(F)F)cc3)C(=O)[C@]12C value_reported=15.1
molecule=CC(C)(C)c1ccc(/C=N/OCC(=O)NCc2ccc(F)cc2)cc1 value_reported=-2.59
molecule=CC(C)N(Cc1nc(-c2ccc(Cl)cc2)no1)Cc1nccn1C value_reported=-50.4
molecule=O=C(CO/N=C/c1ccc(OC(F)F)cc1)NCc1cccs1 value_reported=-62.6
molecule=COc1ccc(C2=NN(CCC(=O)NCc3ccc4c(c3)OCO4)C(=O)CC2)cc1 value_reported=-18.8
molecule=CC(=O)N(C)C1=C(O)c2ccccc2C(=O)C1=O value_reported=22.3
molecule=O=C(CN1N=C(c2ccc(Cl)cc2)CCC1=O)NCCN1CCc2ccccc2C1 value_reported=-51.4
molecule=Cc1ccc(C2=NN(CC(=O)NCCN(CC(C)C)CC(C)C)C(=O)CC2)cc1 value_reported=-50.2
molecule=CCOc1ccc(/C=N/OCC(=O)NCc2ccco2)cc1 value_reported=-12.9
molecule=O=C(CN1N=C(c2ccccc2)CCC1=O)NCCCN1CCc2ccccc2C1 value_reported=-49.6
molecule=COc1cccc(OC)c1OCCOc1ccc(C(=O)c2ccccc2)cc1 value_reported=-4.82
molecule=CCOC(=O)N1CCC(N(CCCOC)C(=O)Nc2ccc(CC)cc2)CC1 value_reported=-48.6
molecule=O=C(CO/N=C/c1ccc(OC(F)F)cc1)NC1CCCC1 value_reported=-49
molecule=O=C(CO/N=C/c1ccccc1OC(F)F)NCc1ccco1 value_reported=-5.06
molecule=O=C(CCS(=O)(=O)c1ccccc1)Nc1nc2c(s1)CCCC2 value_reported=0.42
molecule="c1ccc2oc(-c3[nH]ncc3CN(Cc3ccncc3)CC3CCCO3)cc2c1 (stereo not shown)" value_reported=-22.6
molecule=COc1ccc(-c2[nH]ncc2CN(Cc2nccn2C)C(C)C)c(F)c1 value_reported=-39.7
molecule=COc1ccc(/C=N/NC(=O)c2ccco2)cc1Cn1nc(C)cc1C value_reported=-2.47
molecule=Cc1ccc(C2=NN(CCC(=O)NCCC(C)C)C(=O)CC2)cc1 value_reported=-24.5
